Quick reference for log10 IC50 among some compounds
- Test system: 454973-116-R2-J3-PDC spheroids, viability, % test/control;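 also: spheroids exposed to compounds for seven days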
- Assay overview: Anticancer human tumor 454973-116-R2-J3-PDC patient-derived pancreatic carcinoma cell line growth inhibition [GQUAD]
- Condition description: curve of first compound; second compound 1 µM; spheroids with HUVEC and MSC
Readout label: log10 IC50 (log10 of the value in nM)

- Compound: "O=c1[nH]cc(F)c(=O)[nH]1 + CN(C)c1ccc(Nc2c3ccc(NC(=O)CCN4CCCC4)cc3nc3cc(NC(=O)CCN4CCCC4)ccc23)cc1"
  log10 IC50: 3.16
- Compound: "C#Cc1c(F)ccc2cc(O)cc(-c3ncc4c(N5CC6CCC(C5)N6)nc(OCC56CCCN5CC(F)C6)nc4c3F)c12 (centres undefined) + Cc1[nH]c2ccc(F)cc2c1-c1nc2c3cccnc3c3ncccc3c2[nH]1"
  log10 IC50: 1.76
- Compound: "CC(C)(O)C1CCC(Nc2ccc3ncc(-c4cccc(C(F)(F)F)c4)n3n2)CC1 (centres undefined) + Cc1cnc(CNC(=O)c2c(=O)c3ccc(N4CCCN(C)CC4)nc3n3c2sc2ccccc23)cn1"
  log10 IC50: 3.24
- Compound: "C=CCn1c(=O)c2cnc(Nc3ccc(N4CCN(C)CC4)cc3)nc2n1-c1cccc(C(C)(C)O)n1 + CN(C)c1ccc(Nc2c3ccc(NC(=O)CCN4CCCC4)cc3nc3cc(NC(=O)CCN4CCCC4)ccc23)cc1"
  log10 IC50: 2.56
- Compound: "COc1ccc([C@@H](O)c2cc(-c3ncnc4cc(N5CCOCC5)ccc34)c(F)cc2Cl)nn1 + CN(C)c1ccc(Nc2c3ccc(NC(=O)CCN4CCCC4)cc3nc3cc(NC(=O)CCN4CCCC4)ccc23)cc1"
  log10 IC50: 3.82
- Compound: "CCc1c2c(nc3ccc(O)cc13)-c1cc3c(c(=O)n1C2)COC(=O)[C@]3(O)CC + Cc1[nH]c2ccc(F)cc2c1-c1nc2c3cccnc3c3ncccc3c2[nH]1"
  log10 IC50: 0.21
- Compound: "O=c1[nH]cc(F)c(=O)[nH]1 + Cc1[nH]c2ccc(F)cc2c1-c1nc2c3cccnc3c3ncccc3c2[nH]1"
  log10 IC50: 3.37
- Compound: "COc1cccc2c1C(=O)c1c(O)c3c(c(O)c1C2=O)CC(O)(C(=O)CO)CC3OC1CC(N)C(O)C(C)O1 (centres undefined) + CN(C)c1ccc(Nc2c3ccc(NC(=O)CCN4CCCC4)cc3nc3cc(NC(=O)CCN4CCCC4)ccc23)cc1"
  log10 IC50: 2.40
